Biological target: Concanavalin-A (Canavalia ensiformis)
Experiment: ConA small-molecule binders, primary screen, artefact control for SMM control protein annotation, biochemical, small-molecule microarray, Alexa647 label, 635 nm (AID 1127);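 also: z combines 667 nm emission intensity with signal-to-noise across three replicate slides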
Details: ConA-A647 binding fluorescence, higher = more signal
OBSERVATION TYPE: composite z-score
Quick one: just the number, no unit, thanks!

Check out these entries, answers already filled in.
• O=C(CS)NCCCCCCNC(=O)[C@H]1C[C@H]2C(=O)N3CCC[C@H]3C(=O)N2[C@H]1c1cccc(OCCO)c1 = 1.02
• COCC1=C2[C@@H](CCc3ccccc3)OB(O)C[C@@H]2[C@@H]2C(=O)N(Cc3ccccc3)C(=O)[C@@H]2C1 = -0.777
• COC(=O)C[C@@H]1C[C@H](C)[C@]2(O1)C(=O)N(Cc1ccccc1)c1ccc(NC(C)=O)cc12 = 0.0104

Entry CC(=O)Nc1cc(Br)ccc1C(=O)O : reported composite z-score = ?
0.984

Entry CCC[C@@H]1C=C(C(=O)O)[C@H](c2ccc(C)cc2)N1S(=O)(=O)c1ccc(C)cc1 : reported composite z-score = ?
0.757

Entry COCCOC(=O)N1C(=O)[C@@]2(c3cc(C#CCNC(N)=O)ccc31)[C@H](c1ccc(O)cc1)N1[C@H](c3ccccc3)[C@H](c3ccccc3)OC(=O)[C@H]1[C@@H]2C(=O)NC[C@H](O)c1ccccc1 : reported composite z-score = ?
1.16

Entry O=C1O[C@H](c2ccccc2)[C@H](c2ccccc2)N2[C@H]1[C@@H](C(=O)Nc1nc3ccccc3s1)[C@]1(C(=O)Nc3ccccc31)[C@H]2c1ccc(O)cc1 : reported composite z-score = ?
1.07

Entry COc1cc2c(cc1O)C(C)N(Cc1cccc(OC(F)(F)F)c1)CC2 (stereo not given) : reported composite z-score = ?
0.446

Entry O=C(NCc1ccccc1)[C@]1(CCS(=O)(=O)c2ccccc2)N=C(c2ccc(OCCCO)cc2)O[C@@H]1c1ccccc1 : reported composite z-score = ?
1.08

Entry CC(C)(C)OC(=O)CC[C@@]1(C(=O)NCCN2CCOCC2)N=C(c2ccc(OCCCO)cc2)O[C@@H]1c1ccccc1 : reported composite z-score = ?
1.17

Entry CCOC(=O)C1=CCC(c2ccc(C#N)cc2)N(S(=O)(=O)c2ccc(C)cc2)C1 (stereo not given) : reported composite z-score = ?
1.14

Entry C=C[C@@H](COC(C)=O)N(Cc1ccccc1[N+](=O)[O-])S(=O)(=O)c1ccc(Br)cc1 : reported composite z-score = ?
0.602

Entry O=C1[C@]2(CO)C=C(Br)[C@@H](C[C@@H]2c2ccccc2)[C@@]12CO2 : reported composite z-score = ?
0.195

Entry COC(=O)C(CC#Cc1ccc2c(c1)[C@]1(C(=O)N2)[C@H](c2ccc(OCCO)cc2)N2[C@H](c3ccccc3)[C@H](c3ccccc3)OC(=O)[C@H]2[C@@H]1C(=O)NC[C@H](O)c1ccccc1)C(=O)OC : reported composite z-score = ?
1.14

Entry C=CCNC(=O)[C@@H]1[C@H]2C(=O)O[C@H](c3ccccc3)[C@H](c3ccccc3)N2[C@H](c2ccc(OCCO)cc2)[C@@]12C(=O)Nc1ccccc12 : reported composite z-score = ?
1.11

----------
Assay: P. aeruginosa biofilm formation inhibitors, primary screen, PAO1 strain, BacTiter-Glo luminescence, LB-PBS (AID 1144)
Conditions: 12 h, higher = more signal
OBSERVATION TYPE: z-score
Quick one: just the number, no unit, thanks!

- COC(=O)c1ccc(C(O)C2C=CC3C(=O)N(C)C(=O)C3N2NC(=O)OC(C)(C)C)o1 (centres undefined): 0.212
- CCOC(=O)C[C@H]1[C@H](OC(=O)c2ccccc2-c2ccccc2)[C@@H](NC(=O)c2ccc3ccccc3c2)c2cc(OCCCO)ccc2N1C(=O)c1ccc2ccccc2n1: -0.756
- O=C1OCCC=C[C@H]2OC34C=CCN(Cc5ccccc5)C(=O)[C@H]3N(CCCCCO)C(=O)[C@@H]4C12 (some centres undefined): -1.86

Pending molecule:
Entry O=C1C[C@@](C(=O)NC2CC2)(c2ccc([N+](=O)[O-])cc2)[C@@H](c2ccc(CO)cc2)N1CC12CC3CC(CC(C3)C1)C2 : reported z-score = ?
-0.752
